Reported pIC50 values for a set of compounds
target-of-assay: human PI3Kα protein (Homo sapiens)
Construct: purchased Carna Biosciences, Inc; host or cells: baculovirus expression system
assay-explanation: PI3Kα enzyme assay (ADP-Glo)
Type: biochemical
condition: 4.5 nmol/L PI3Kα, PIP2 50 μmol/L, ATP 100 μmol/L; read-out: PI3Kα enzyme inhibitory activity
pIC50: −log10 of the molar value.

CC(C)c1nnc(Nc2ccc3nccc(Nc4ccncc4)c3n2)s1; > 6.00
c1ccc(-c2ccc(Nc3cnc4ccc(Nc5nnc(C6CCCC6)s5)nc4c3)cn2)cc1; 4.30 to 5.00
COc1ccc(-c2cnc3ccc(Nc4nccs4)nc3c2)cc1OC; 5.00 to 6.00

Proceed to the following item.
Cc1cnnc(Nc2ccc3ncc(-c4cnn(CCCN5CCCC5)c4)cc3n2)c1 yielded pIC50 of > 6.00

---

target-of-assay: GST fusion human ERK2 protein (Homo sapiens)
Construct: purchased Carna Biosciences, Inc; host or cells: E. coli expression system
Sequence (P28482 whole entry, the tested form may be a part): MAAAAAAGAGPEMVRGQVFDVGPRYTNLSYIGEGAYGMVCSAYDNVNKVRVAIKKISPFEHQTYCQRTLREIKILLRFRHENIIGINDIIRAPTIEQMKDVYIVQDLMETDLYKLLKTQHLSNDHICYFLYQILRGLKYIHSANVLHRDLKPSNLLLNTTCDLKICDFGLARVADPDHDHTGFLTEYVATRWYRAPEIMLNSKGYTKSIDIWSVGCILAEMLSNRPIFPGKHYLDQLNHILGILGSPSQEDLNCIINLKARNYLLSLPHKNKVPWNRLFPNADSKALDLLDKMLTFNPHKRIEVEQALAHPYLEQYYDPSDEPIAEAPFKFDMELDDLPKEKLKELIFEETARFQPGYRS
assay-explanation: ERK2 enzyme assay (1)
Type: biochemical
condition: 2.5 nmol/L ERK2, ATP 43.1 μmol/L; read-out: ERK2 enzyme inhibitory activity (1)
Counter-ions that a name gives are not always drawn.
IC50 listing for selected compounds.

The measured IC50 that CC(C)c1nnc(Nc2ccc3nccc(Nc4ccnnc4)c3n2)s1 [Example 0008] showed for GST fusion human ERK2 protein (Homo sapiens) is 1 to 10 µM

The reported IC50 value, GST fusion human ERK2 protein (Homo sapiens), for c1cncc(Oc2cnc3ccc(Nc4nnc(C5CCCC5)s4)nc3c2)c1 [Example 0044, hydrochloride] reads 1 to 10 µM

Field IC50 (GST fusion human ERK2 protein (Homo sapiens)), entry c1ncc(N2CCCCC2)cc1Nc1cnc2ccc(Nc3nnc(C4CCCC4)s3)nc2c1 [Example 0101] : < 1 µM

Measured on GST fusion human ERK2 protein (Homo sapiens), Cn1cc(-c2cnc3ccc(Nc4cncs4)nc3c2)cn1 [Example 0199] has a documented IC50 of 1 to 10 µM

Value sought: IC50, system GST fusion human ERK2 protein (Homo sapiens), item CCc1nn(C)cc1-c1cnc2ccc(Nc3nnc(C4CCCC4)s3)nc2c1 [Example 0110] . Result: < 1 µM

Let me check: COCc1nn(C)cc1-c1cnc2ccc(Nc3cc(C(C)C)cnn3)nc2c1 [Example 0160] , system GST fusion human ERK2 protein (Homo sapiens), measured IC50 is < 1 µM

IC50 value, target or system GST fusion human ERK2 protein (Homo sapiens), for COc1ccc(-c2cnc3ccc(Nc4ncc(C)s4)nc3c2)cc1OC [Example 0022] : 10 to 50 µM

Form field, IC50 with GST fusion human ERK2 protein (Homo sapiens), item COc1cccc(Nc2ccnc3ccc(Nc4nnc(C(C)C)s4)nc23)c1 [Example 0012] : 1 to 10 µM

Reading of IC50 for Cn1cc(-c2cnc3ccc(Nc4ccccn4)nc3c2)cn1 [Example 0036] with GST fusion human ERK2 protein (Homo sapiens): 1 to 10 µM

With GST fusion human ERK2 protein (Homo sapiens) as the test system, COc1cc(Nc2cnc3ccc(Nc4nnc(C5CCCC5)s4)nc3c2)cc(OC)c1 [Example 0081] showed IC50 of < 1 µM

Query CC(C)c1nnc(Nc2ccc3ncc(-c4cnn(C)c4)nc3n2)s1 [Example 0010] on GST fusion human ERK2 protein (Homo sapiens); IC50 returned: < 1 µM

---

target-of-assay: human PI3Kα protein (Homo sapiens)
Construct: purchased Carna Biosciences, Inc; host or cells: baculovirus expression system
assay-explanation: PI3Kα enzyme assay (ADP-Glo)
Type: biochemical
condition: read-out: PI3Kα enzyme inhibitory activity
pIC50: −log10 of the molar value.
readout-type: pIC50

Please review the following examples before continuing.
Cn1cc(-c2cnc3ccc(Nc4cc(C5CCCC5)cnn4)nc3c2)c(CF)n1; > 6.00
Cn1cc(-c2cnc3ccc(Nc4nnc(CC5CCCO5)s4)nc3c2)cn1 (centres unmarked); 5.00 to 6.00
CC(C)c1cnnc(Nc2ccc3ncc(-c4cnn(CCOC5CN(C(C)C)C5)c4)cc3n2)c1; > 6.00
CC(C)c1cnnc(Nc2ccc3ncc(-c4cn(C)nc4NCc4ccccn4)cc3n2)c1; > 6.00

Entry under test: Cc1ccnnc1Nc1ccc2ncc(-c3cnn(C)c3)cc2n1 . Its pIC50 was 4.30 to 5.00

Form field pIC50, entry CC(C)c1cnnc(Nc2ccc3ncc(N4CC5CCC(C4)O5)cc3n2)c1 : > 6.00

---

target-of-assay: human PI3Kα protein (Homo sapiens, UniProt P42336)
Construct: purchased Carna Biosciences, Inc; host or cells: baculovirus expression system
Sequence (P42336 whole entry): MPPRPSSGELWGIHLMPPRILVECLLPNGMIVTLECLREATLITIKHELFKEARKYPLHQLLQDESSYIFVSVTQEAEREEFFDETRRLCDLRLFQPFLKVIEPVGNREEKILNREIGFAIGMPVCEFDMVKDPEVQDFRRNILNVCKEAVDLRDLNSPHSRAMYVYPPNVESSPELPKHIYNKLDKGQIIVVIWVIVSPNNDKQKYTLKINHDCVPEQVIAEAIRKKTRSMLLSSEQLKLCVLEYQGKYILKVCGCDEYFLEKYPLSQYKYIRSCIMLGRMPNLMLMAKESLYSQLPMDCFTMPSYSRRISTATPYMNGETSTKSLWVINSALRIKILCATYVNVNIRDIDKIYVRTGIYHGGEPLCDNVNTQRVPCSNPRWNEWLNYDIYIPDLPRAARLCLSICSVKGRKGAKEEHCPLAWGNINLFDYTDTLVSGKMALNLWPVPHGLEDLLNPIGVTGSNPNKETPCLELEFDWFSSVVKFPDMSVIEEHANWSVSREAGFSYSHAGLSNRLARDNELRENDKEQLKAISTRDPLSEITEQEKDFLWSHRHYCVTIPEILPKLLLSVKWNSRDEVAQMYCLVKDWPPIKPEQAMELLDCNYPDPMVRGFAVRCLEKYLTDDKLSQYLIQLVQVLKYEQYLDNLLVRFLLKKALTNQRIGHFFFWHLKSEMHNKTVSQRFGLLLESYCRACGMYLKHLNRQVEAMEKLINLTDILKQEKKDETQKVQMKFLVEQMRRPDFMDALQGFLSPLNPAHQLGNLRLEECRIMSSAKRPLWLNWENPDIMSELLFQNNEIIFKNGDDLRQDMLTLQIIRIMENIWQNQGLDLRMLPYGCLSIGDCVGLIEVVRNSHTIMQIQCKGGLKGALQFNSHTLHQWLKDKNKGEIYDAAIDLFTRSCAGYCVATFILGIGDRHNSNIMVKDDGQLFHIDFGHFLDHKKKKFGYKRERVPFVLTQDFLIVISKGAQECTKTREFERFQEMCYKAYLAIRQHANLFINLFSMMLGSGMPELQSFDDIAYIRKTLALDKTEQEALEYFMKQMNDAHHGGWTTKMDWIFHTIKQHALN
Sequence (P27986 whole entry partner): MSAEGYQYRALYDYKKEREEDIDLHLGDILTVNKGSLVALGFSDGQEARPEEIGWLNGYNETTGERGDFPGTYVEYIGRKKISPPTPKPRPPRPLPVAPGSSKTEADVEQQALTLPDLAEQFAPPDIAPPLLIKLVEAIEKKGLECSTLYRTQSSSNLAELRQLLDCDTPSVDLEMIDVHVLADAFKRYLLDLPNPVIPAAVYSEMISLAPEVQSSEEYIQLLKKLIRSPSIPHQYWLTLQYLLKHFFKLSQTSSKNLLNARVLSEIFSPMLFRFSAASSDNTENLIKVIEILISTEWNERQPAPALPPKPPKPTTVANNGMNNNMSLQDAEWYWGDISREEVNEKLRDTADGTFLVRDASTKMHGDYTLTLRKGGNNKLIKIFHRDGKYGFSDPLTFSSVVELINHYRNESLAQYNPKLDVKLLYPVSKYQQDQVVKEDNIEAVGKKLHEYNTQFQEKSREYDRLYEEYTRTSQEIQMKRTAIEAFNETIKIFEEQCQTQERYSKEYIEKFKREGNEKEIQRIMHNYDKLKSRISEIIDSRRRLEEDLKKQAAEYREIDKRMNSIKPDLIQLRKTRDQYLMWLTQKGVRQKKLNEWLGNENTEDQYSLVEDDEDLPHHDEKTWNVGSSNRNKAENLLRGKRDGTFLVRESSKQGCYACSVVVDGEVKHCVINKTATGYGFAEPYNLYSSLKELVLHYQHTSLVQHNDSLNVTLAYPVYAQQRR
assay-explanation: PI3Kα enzyme assay (ADP-Glo)
Assay type: biochemical
condition: read-out: PI3Kα enzyme inhibitory activity
pIC50: −log10 of the molar value.
readout-type: pIC50

pIC50 measured on CC(=O)N1CCC(Nc2cnc3ccc(Nc4cc(C(C)C)cnn4)nc3c2)CC1 = > 6.00

---

target-of-assay: human PI3Kα protein (Homo sapiens, UniProt P42336)
Construct: purchased Carna Biosciences, Inc; host or cells: baculovirus expression system
assay-explanation: PI3Kα enzyme assay (ADP-Glo)
Type: biochemical
condition: read-out: PI3Kα enzyme inhibitory activity
readout-type: IC50

The reported value for Cn1cc(-c2cnc3ccc(Nc4cc(C5CC5)cnn4)nc3c2)c(-c2cccnc2)n1 [Example 0573] in terms of IC50 is < 1 µM

Entry CC(C)c1cnnc(Nc2ccc3ncc(-c4cnn(CC(F)CN5CCOCC5)c4)cc3n2)c1 (stereo not shown) [Example 0733] , IC50 reported as < 1 µM

Per the record, CC(C)c1cnnc(Nc2ccc3ncc(-c4cnn(CCCN5C[C@@H](C)O[C@@H](C)C5)c4)cc3n2)c1 [Example 0615] has IC50 of < 1 µM

IC50 reported for this compound CC(C)c1cnnc(Nc2ccc3ncc(C4=CCNC4)cc3n2)c1 [Example 0906] : 1 to 10 µM

---

target-of-assay: human PI3Kα protein (Homo sapiens, UniProt P42336)
Construct: purchased Carna Biosciences, Inc; host or cells: baculovirus expression system
assay-explanation: PI3Kα enzyme assay (ADP-Glo)
Format: biochemical
condition: read-out: PI3Kα enzyme inhibitory activity
pIC50: −log10 of the molar value.
readout-type: pIC50

c1n[nH]cc1Nc1cnc2ccc(Nc3nnc(N4CCOCC4)s3)nc2c1 [Example 0225]; 5.00 to 6.00
COc1cncc(Nc2cnc3ccc(Nc4nnc(CC5CCCO5)s4)nc3c2)c1 (stereo not shown) [Example 0250]; > 6.00
CC(C)(O)Cc1nnc(Nc2ccc3ncc(-c4cnn(CCCN5CCCC5)c4)cc3n2)s1 [Example 0260]; > 6.00

The molecule listed as COc1ccc(-c2cnc3ccc(Nc4cc(C(C)C)cnn4)nc3c2)cn1 [Example 0590] shows pIC50 equal to 5.00 to 6.00

---

target-of-assay: GST fusion human ERK2 protein (Homo sapiens)
Construct: purchased Carna Biosciences, Inc; host or cells: E. coli expression system
assay-explanation: ERK2 enzyme assay (2)
Assay type: biochemical
condition: ERK2 enzyme assay (2); read-out: ERK2 enzyme inhibitory activity (2)
pIC50: −log10 of the molar value.
readout-type: pIC50

Before answering, review these 3 worked examples.
CC(C)c1cnnc(Nc2ccc3ncc(C(=O)Nc4ccncc4)cc3n2)c1 [Example 0669]; 5.00 to 6.00
CS(=O)(=O)Cc1nnc(Nc2ccc3ncc(-c4cnn(CCCN5CCCC5)c4)cc3n2)s1 [Example 0258]; > 6.00
CC(C)c1cnnc(Nc2ccc3ncc(-c4cnn(CCCN5CC(F)(F)C5)c4)cc3n2)c1 [Example 0692]; > 6.00

Could you now consider this next compound?
In plain terms, CC(C)c1cnnc(Nc2ccc3ncc(-c4cn(C)nc4COC4CN(C)C4)cc3n2)c1 [Example 0823] has a documented pIC50 of > 6.00

---

target-of-assay: human PI3Kα protein (Homo sapiens)
Construct: purchased Carna Biosciences, Inc; host or cells: baculovirus expression system
assay-explanation: PI3Kα enzyme assay (ADP-Glo)
Assay type: biochemical
condition: read-out: PI3Kα enzyme inhibitory activity
readout-type: IC50

Consider the reported IC50 for these compounds:
CC(C)c1cnnc(Nc2ccc3ncc(/C=C/c4ccccn4)cc3n2)c1; < 1000 nM
COCCNc1cnc2ccc(Nc3nnc(C4CCCC4)s3)nc2c1; 1000 to 10000 nM
c1nc2ccc(Nc3nnc(CC4CCCO4)s3)nc2cc1-c1cnn(CCCN2CCCC2)c1 (centres unmarked); < 1000 nM
COc1cnnc(Nc2ccc3ncc(-c4cnn(CCCN5CCOCC5)c4)cc3n2)c1; < 1000 nM

IC50 on human PI3Kα protein (Homo sapiens) for CC(C)c1cnnc(Nc2ccc3ncc(-c4cnn(CCN5C[C@H](C)O[C@@H](C)C5)c4)cc3n2)c1 is < 1000 nM

# value of IC50, human PI3Kα protein (Homo sapiens), item CC(C)c1cnnc(Nc2ccc3ncc(-c4cnn(CC(O)CN5CCOCC5)c4)cc3n2)c1 (centres unmarked) = < 1000 nM

// assay human PI3Kα protein (Homo sapiens), entry CCN(CC)C(=O)N1CCC(Cn2cc(-c3cnc4ccc(Nc5cc(C(C)C)cnn5)nc4c3)cn2)CC1 , IC50 value = < 1000 nM

Tested on human PI3Kα protein (Homo sapiens), the item CC(C)c1cnnc(Nc2ccc3ncc(NC4(C)CCC4)cc3n2)c1 showed IC50 equal to 1000 to 10000 nM
